system: UACC-62 melanoma; experiment: NCI tumour cell line growth inhibition, 48 h
endpoint_name: GI50

CC(=O)N1CCN(CCNC(=O)n2cc(-c3ccncc3)c(-c3cc(O)cc(Cl)c3)n2)CC1; 2950 nM
NC(=O)c1ccc(Oc2nccc(-c3c(-c4ccc(F)cc4)ncn3C3CCNCC3)n2)cc1; > 25000 nM
O=C(/C=C/C=C/c1ccccc1)c1ccco1; 14600 nM
C#C[C@@]1(O)[C@@H](CO)O[C@@H](n2cc(I)c3c(N)ncnc32)[C@@H]1O; 615 nM
CCC[CH2][Sn]([CH2]CCC)([S]C#N)[S]C#N; 580 nM

# per-item lookup of GI50; items listed below
1. COc1ccc(/C=C/c2c(C(=O)/C=C/c3ccc(C(F)(F)F)cc3)c(C)nc3ccccc23)cc1
2. CS(=O)(=O)c1ccc(Nc2nc(N[C@H]3CCCC[C@H]3N)nc3cc[nH]c(=O)c23)cc1
3. CN(C)CCCn1c(=O)c2ccccc2c2cnc3[nH]ccc3c21
4. ClCc1ccccc1Cn1cnc2ncnc(Cl)c21
5. CCCCC#Cc1c(I)n(C)c(=O)[nH]c1=O

Marked response:
["1600 nM", "1500 nM", "1590 nM", "1880 nM", "3390 nM"]

Would you mind giving GI50 for every molecule in the list below?
1. CS(=O)(=O)Nc1cccc(-c2ccc3ncnc(Nc4ccc(F)c(Cl)c4)c3c2)c1
2. C#Cc1cccc(Nc2nc(Cl)nc3cc(NC(=O)CCl)ccc23)c1

Marked response:
1: 1840 nM; 2: 820 nM

Reference for the values: PubChem BioAssay (NCI)
